B1: LINE1-mini (parent)
chain: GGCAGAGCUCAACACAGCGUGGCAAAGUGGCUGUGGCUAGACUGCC

# Variants of: B1
# protocolDescription: self-cleavage, relative activity (ratio to wild type); higher = more cleavage; in vitro, sequencing; the parent is a self-cleaving ribozyme
Decide using self-cleavage: a value greater than or equal to 0.2 is Criterion met, a smaller one is Criterion not met.

> print(dat)
    variantkey      discretelabel
 1    A6G C42G  Criterion not met
 2   A25U U28C      Criterion met
 3   G19U A26C      Criterion met
 4     G1U A6C      Criterion met
 5   C15U A25C      Criterion met
 6   G19U C23G      Criterion met
 7     G1A C3G      Criterion met
 8    G2C U34G  Criterion not met
 9        C42U      Criterion met
10    G2U G27C  Criterion not met
11   C13U C31G  Criterion not met
12   C31G C37A  Criterion not met
13   A24G C31A  Criterion not met
14   A11U C23A  Criterion not met
15    G1A C23A      Criterion met
16    C8G A12G  Criterion not met
17    A4U A16U  Criterion not met
18    A6U C37G  Criterion not met
19    C8A G17C      Criterion met
20    G2A A26C      Criterion met
